Taken from patent US20250171438A1.

Parameter AC50: see the listing below.
assay.target: human PAH with the R408W mutation (Homo sapiens, UniProt P00439, R408W)
Construct: expressed in transfected cells
Sequence (P00439 whole entry R408W): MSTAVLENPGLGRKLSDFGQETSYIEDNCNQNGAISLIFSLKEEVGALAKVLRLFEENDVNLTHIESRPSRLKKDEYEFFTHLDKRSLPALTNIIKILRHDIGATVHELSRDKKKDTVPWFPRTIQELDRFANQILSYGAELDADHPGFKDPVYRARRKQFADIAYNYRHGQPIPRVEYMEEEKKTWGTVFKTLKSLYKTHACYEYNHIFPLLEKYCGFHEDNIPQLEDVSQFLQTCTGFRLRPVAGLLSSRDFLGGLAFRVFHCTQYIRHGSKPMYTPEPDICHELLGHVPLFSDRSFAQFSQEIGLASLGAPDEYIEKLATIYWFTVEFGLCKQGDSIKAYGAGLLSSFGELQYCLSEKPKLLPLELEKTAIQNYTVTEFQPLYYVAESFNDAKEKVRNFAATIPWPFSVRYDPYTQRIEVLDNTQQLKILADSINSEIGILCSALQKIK
test.method.notes: Cell Based Phenylalanine Flux Assay
condition.context: A375 cells expressing human R408W PAH; 24 hrs compound incubation; 13C-Tyrosine by LC-MS; average where tested multiple times; read-out: AC50

Recorded results for 10 compounds are shown here.
Cc1nc(-c2cnn(CC(F)(F)F)c2)oc1C(=O)N1CCc2[nH]cnc2[C@@H]1c1nc2ccccc2s1 = 1000 to 5000 nM
Cn1cc(-c2nc(C3CC3)c(C(=O)N3CCc4[nH]cnc4[C@@H]3c3nc4ccccc4s3)o2)cn1 = 1000 to 5000 nM
O=C(c1nnc(-c2ncccc2F)o1)N1CCc2[nH]cnc2[C@@H]1c1nc2c(F)cccc2s1 = 500 to 1000 nM
O=C(c1cnc(-c2ccccn2)o1)N1CCc2[nH]cnc2[C@H]1c1nc2ccccc2s1 = < 500 nM
O=C(c1cnn2ccccc12)N1CCc2[nH]cnc2[C@@H]1c1nc2cccc(F)c2[nH]1 = > 5000 nM
O=C(c1nnc(-c2ccccn2)o1)N1CC2(CC2)c2[nH]cnc2[C@H]1c1nc2ccccc2s1 = < 500 nM
O=C(c1cncs1)N1CCc2[nH]cnc2[C@H]1c1nc2cccc(F)c2s1 = 500 to 1000 nM
COCCn1nccc1C(=O)N1CCc2[nH]cnc2[C@@H]1c1nc2c(F)cccc2s1 = < 500 nM
O=C(c1ccnn1C(F)(F)F)N1CCc2[nH]cnc2[C@@H]1c1nc2c(F)cccc2s1 = 1000 to 5000 nM
CC(C)(O)c1nc(C2CC2)c(C(=O)N2CCc3[nH]cnc3[C@H]2c2nc3ccccc3s2)o1 = < 500 nM

For O=C(N1CCC1)N1CCc2[nH]cnc2[C@H]1c1nc2ccccc2s1 , what is its reported AC50?
< 500 nM

Here is the next compound: O=C(c1nnc(-c2cc[nH]n2)o1)N1CCc2[nH]cnc2[C@H]1c1nc2c(F)cccc2s1
500 to 1000 nM

Here is the next compound: O=C(c1oc(OCCC(F)(F)F)nc1C(F)F)N1CCc2[nH]cnc2[C@@H]1c1nc2ccccc2s1
< 500 nM

Here is the next compound: O=C(c1oc(NC2CC2)nc1C(F)(F)F)N1CCc2[nH]cnc2[C@H]1c1nc2ccccc2s1
< 500 nM

Here is the next compound: CC(F)(F)c1ncc(C(=O)N2CCc3[nH]cnc3[C@@H]2c2nc3ccccc3s2)s1
1000 to 5000 nM

Here is the next compound: CC(C)(CO)c1nc(C(F)F)c(C(=O)N2CCc3[nH]cnc3[C@@H]2c2nc3c(F)cccc3s2)o1
500 to 1000 nM
